Property: pIC50; scope: individual compounds
target: α4β7 integrin (Homo sapiens (Human), UniProt P13612+P26010); assay: Integrin Adhesion Assay: Protocol 1 (MAdCAM-coated plate, RPMI-8866 cells, CellTiter GLO readout); format: cell-based
Sequence (P13612 34-1032): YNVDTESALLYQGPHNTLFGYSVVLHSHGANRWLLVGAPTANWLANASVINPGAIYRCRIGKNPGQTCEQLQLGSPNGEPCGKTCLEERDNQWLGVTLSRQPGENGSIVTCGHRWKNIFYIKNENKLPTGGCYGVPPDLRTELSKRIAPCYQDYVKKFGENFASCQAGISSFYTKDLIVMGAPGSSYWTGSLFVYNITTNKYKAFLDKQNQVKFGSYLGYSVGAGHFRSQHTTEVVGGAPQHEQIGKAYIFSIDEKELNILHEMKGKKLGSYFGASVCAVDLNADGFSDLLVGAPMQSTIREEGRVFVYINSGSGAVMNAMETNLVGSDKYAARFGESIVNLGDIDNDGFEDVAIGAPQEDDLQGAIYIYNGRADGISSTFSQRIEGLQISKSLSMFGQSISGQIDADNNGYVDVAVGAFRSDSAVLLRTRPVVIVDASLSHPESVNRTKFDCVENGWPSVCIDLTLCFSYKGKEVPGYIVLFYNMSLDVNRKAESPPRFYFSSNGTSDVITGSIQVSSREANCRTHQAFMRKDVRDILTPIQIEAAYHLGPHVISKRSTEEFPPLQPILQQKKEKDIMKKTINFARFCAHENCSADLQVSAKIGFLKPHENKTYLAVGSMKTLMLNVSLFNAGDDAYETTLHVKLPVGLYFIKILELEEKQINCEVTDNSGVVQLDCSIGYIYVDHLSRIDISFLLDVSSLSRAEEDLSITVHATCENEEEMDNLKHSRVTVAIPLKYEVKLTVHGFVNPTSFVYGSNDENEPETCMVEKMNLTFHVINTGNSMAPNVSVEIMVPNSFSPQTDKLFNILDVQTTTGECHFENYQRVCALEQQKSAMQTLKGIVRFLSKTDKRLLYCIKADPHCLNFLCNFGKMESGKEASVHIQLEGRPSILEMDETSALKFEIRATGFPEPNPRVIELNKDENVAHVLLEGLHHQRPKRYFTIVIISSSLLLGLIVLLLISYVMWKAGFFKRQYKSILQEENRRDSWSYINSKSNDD
Sequence (P26010 20-798): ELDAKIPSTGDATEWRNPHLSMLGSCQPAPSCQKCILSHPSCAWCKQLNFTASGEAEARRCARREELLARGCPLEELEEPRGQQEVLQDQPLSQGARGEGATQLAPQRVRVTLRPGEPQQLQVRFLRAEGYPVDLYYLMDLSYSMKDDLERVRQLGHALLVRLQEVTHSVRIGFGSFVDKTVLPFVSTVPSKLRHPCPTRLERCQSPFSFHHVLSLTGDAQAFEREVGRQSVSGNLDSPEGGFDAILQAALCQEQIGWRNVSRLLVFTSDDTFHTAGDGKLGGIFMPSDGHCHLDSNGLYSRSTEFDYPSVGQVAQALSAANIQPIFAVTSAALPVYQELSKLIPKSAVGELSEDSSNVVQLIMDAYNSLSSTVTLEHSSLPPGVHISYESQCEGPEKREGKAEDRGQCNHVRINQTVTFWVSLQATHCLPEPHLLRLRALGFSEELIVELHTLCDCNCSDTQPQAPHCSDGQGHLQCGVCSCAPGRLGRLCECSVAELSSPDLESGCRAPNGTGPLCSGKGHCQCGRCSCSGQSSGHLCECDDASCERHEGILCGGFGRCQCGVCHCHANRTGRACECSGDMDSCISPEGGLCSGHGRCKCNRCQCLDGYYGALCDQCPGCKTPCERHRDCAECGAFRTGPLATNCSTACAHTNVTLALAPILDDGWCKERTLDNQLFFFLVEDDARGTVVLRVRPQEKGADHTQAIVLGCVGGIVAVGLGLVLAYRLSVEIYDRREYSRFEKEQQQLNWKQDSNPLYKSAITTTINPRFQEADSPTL
pIC50: −log10 of the molar value.

Worked cases, pIC50 given:
{"COMPOUND": "CN(c1cc(F)c(C(=O)N[C@@H](Cc2cccc3c(-c4c(C(F)(F)F)c5ccccc5n(C)c4=O)cccc23)C(=O)O)c(F)c1)C1COC1", "pIC50": "6.00 to 7.00"}
{"COMPOUND": "Cn1c(=O)c(-c2cccc3c(C[C@H](NC(=O)[C@]4(C)CC[C@@H](N5CCOC[C@@H]5C(F)(F)F)CC4)C(=O)O)cccc23)c(C(F)(F)F)c2ccccc21", "pIC50": "7.00 to 8.00"}

Now examine the next entry.
[ask] Return value of pIC50 for input Cn1c(=O)c(-c2cccc3c(C[C@H](NC(=O)c4c(F)cc(N5CC6C(C5)C6(F)F)cc4F)C(=O)O)cccc23)c(C(F)(F)F)c2ccccc21 (stereo partly drawn) , no commentary.
[reply] 6.00 to 7.00

----------
target: α4β7 integrin (Homo sapiens (Human), UniProt P13612+P26010); test: Integrin Adhesion Assay: Protocol 1 (MAdCAM-coated plate, RPMI-8866 cells, CellTiter GLO readout); assay type: cell-based
Property: IC50; scope: individual compounds

Worked cases, IC50 given:
{"COMPOUND": "Cn1c(=O)c(-c2cccc3c(C[C@H](NC(=O)c4cc5ccc(N6CC(F)(F)C6)cn5n4)C(=O)O)cccc23)c(C(F)(F)F)c2ccccc21", "EXPERIMENTAL_RESULT": "> 1000 nM"}
{"COMPOUND": "CN(C)Cc1cccc2c(-c3cccc4c(C[C@H](NC(=O)[C@]5(C)CC[C@H](N6CCOC[C@@H]6C(F)(F)F)CC5)C(=O)O)cccc34)nccc12 (single isomer, unassigned)", "EXPERIMENTAL_RESULT": "10 to 100 nM"}
{"COMPOUND": "CC[C@@H](Nc1cc(F)c(C(=O)N[C@@H](Cc2cccc3c(-c4c(C(F)(F)F)c5ccccc5n(C)c4=O)cccc23)C(=O)O)c(F)c1)C(F)(F)F", "EXPERIMENTAL_RESULT": "10 to 100 nM"}
{"COMPOUND": "Cn1c(=O)c(-c2cccc3c(C[C@H](NC(=O)C45CC(C(F)F)(C4)C5)C(=O)O)cccc23)c(C(F)(F)F)c2ccccc21", "EXPERIMENTAL_RESULT": "100 to 1000 nM"}
{"COMPOUND": "CN1CCC(c2cc(F)c(C(=O)N[C@@H](Cc3cccc4c(-c5c(C(F)(F)F)c6ccccc6n(C)c5=O)cccc34)C(=O)O)c(F)c2)CC1", "EXPERIMENTAL_RESULT": "100 to 1000 nM"}

[ask] Return value of IC50 for input CO[C@H](C)c1cc(F)c(C(=O)N[C@@H](Cc2cccc3c(-c4c(C(F)(F)F)c5ccccc5n(C)c4=O)cccc23)C(=O)O)c(F)c1 , no commentary.
[reply] 100 to 1000 nM

[ask] Return value of IC50 for input Cn1c(C(F)(F)F)cc(C(F)(F)F)c(-c2cccc3c(C[C@H](NC(=O)[C@]4(C)CC[C@@H](N5CCOC[C@@H]5C(F)(F)F)CC4)C(=O)O)cccc23)c1=O , no commentary.
[reply] 10 to 100 nM

[ask] Return value of IC50 for input Cn1c(=O)c(-c2cccc3c(C[C@H](NC(=O)C45CC(N6CCC(F)(F)CC6)(C4)C5)C(=O)O)cccc23)c(C(F)(F)F)c2ccccc21 , no commentary.
[reply] > 1000 nM

[ask] Return value of IC50 for input CN(C)c1ccc2c(c1)c(C(F)(F)F)c(-c1cccc3c(C[C@H](NC(=O)[C@]4(C)CC[C@@H](N5CCOC[C@@H]5C(F)(F)F)CC4)C(=O)O)cccc13)c(=O)n2C , no commentary.
[reply] 100 to 1000 nM

[ask] Return value of IC50 for input Cn1c(=O)c(-c2cccc3c(C[C@H](NC(=O)c4c(F)cc(N5CCOC[C@H]5c5ccccc5)cc4F)C(=O)O)cccc23)c(C(F)(F)F)c2ccccc21 , no commentary.
[reply] > 1000 nM

[ask] Return value of IC50 for input Cn1c(=O)c(-c2cccc3c(C[C@H](NC(=O)C4(C(F)(F)F)CCN(CC(F)(F)F)CC4)C(=O)O)cccc23)c(C(F)(F)F)c2ccccc21 , no commentary.
[reply] 10 to 100 nM

Source: patent US20250313535A1
